From: patent US6552060B1

measurement-target: TR/Trx (Homo sapiens)
experiment-notes: Thioredoxin dependent reduction of insulin by human thioredoxin reductase and NADPH (IC50 TR/Trx, 96 well)
Assay type: biochemical
condition: Table 4
property-label: Disulfide inhibition of TR/Trx (IC50 TR/Trx) (µg/mL)
// note: answer is a bare numeric in µg/mL

INSERT INTO measurements (compound, value_observed) VALUES
  ('CCSSc1nccc(C)n1', 90);

Exam item: Look up Disulfide inhibition of TR/Trx (IC50 TR/Trx) with TR/Trx (Homo sapiens) for this compound: CCCCSSC(C)c1ccccc1 (centres unmarked)
Marked response: 194

Exam item: Item: Cc1ccnc(SSC(C)c2ccccc2)n1 (centres unmarked)
Marked response: 67

Exam item: Moving on to the next compound: CCC(C)SSCc1ccc(OC)cc1 (centres unmarked)
Marked response: 60

Exam item: Thanks! And CCCCSSCc1cccc(OC)c1 ?
Marked response: 61

----------
experiment-notes: in vitro
condition: mouse
property-label: IC50 (µM)
Just the number in µM, nothing appended.

Exam item: Would you kindly share the measured IC50 for CCC(C)SSc1nc2ccccc2s1 (stereo not shown) [Compound F-11] ?
Marked response: 33

----------
System: EMT6 mouse mammary tumor cells
experiment-notes: Cytotoxicity against EMT6 cells in culture (MTT)
condition: read-out: Disulfide Cytotoxicity (IC50), Table 5, 48 h exposure
Define the label as yes (1) when IC50 is strictly less than 30 µM and as no (0) in all remaining cases.

Exam item: # TODO verify IC50 < 30 µM strictly for this compound: CC(C)SSc1nc(N)nc2[nH]cnc12 [Compound E-6]
Marked response: no (0)

Exam item: What about Cc1nnc(SSC(C)C(C)O)s1 (stereo not drawn) [Compound M-3] ?
Marked response: no (0)

Exam item: Again, but for Cc1ccnc(SSC(C)C)n1 [Compound E-24]
Marked response: no (0)

Exam item: Request: CCCCSSc1nccn1C [Compound C-2]
Marked response: yes (1)

Exam item: Proceed to Cc1ccnc(SSC(C)C(C)O)n1 (stereo not drawn) [Compound M-24]
Marked response: no (0)

Exam item: Same read-out for CCC(C)SSc1nc2ccccc2o1 (stereo not drawn) [Compound F-12] ?
Marked response: no (0)

----------
System: EMT6 mouse mammary tumor cells
condition: 48 h
property-label: IC50 (µM)
API: value field is a number in µM; no unit string.

Exam item: May I ask what IC50 has been recorded for CC(C)SSCc1ccccc1 ?
Marked response: 25

----------
measurement-target: TR/Trx (Homo sapiens, UniProt Q16881)
Sequence (Q16881 151-649): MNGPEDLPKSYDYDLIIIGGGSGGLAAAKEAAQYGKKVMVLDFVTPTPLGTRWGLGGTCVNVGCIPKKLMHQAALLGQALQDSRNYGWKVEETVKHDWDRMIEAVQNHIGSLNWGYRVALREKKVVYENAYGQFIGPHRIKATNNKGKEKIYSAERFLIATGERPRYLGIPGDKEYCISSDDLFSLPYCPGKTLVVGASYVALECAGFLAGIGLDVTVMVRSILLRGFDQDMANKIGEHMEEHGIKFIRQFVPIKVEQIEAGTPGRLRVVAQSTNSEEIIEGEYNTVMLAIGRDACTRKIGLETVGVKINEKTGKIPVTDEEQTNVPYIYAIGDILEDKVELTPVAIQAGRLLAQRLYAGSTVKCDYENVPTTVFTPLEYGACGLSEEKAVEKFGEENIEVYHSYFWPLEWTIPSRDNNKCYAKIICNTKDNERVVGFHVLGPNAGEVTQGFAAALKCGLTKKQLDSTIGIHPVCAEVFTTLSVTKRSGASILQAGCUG
experiment-notes: Thioredoxin dependent reduction of insulin by human thioredoxin reductase and NADPH (IC50 TR/Trx, 96 well)
Assay type: biochemical
condition: Table 3; read-out: IC50 TR/Trx (converted)
This section presents compounds with their documented IC50 values.
Record the value in µM, omitting the unit from your answer.

Exam item: Any idea what its IC50 is? The compound is CC(SSc1nccs1)c1ccccc1 (centres unmarked)
Marked response: 15.8

Exam item: Please do the same for CC(C)CSSc1ncccc1C(=O)O as well.
Marked response: 57.5

Exam item: Please answer likewise for CCC(C)SSc1ncnc2[nH]cnc12 (centres unmarked)
Marked response: 95.7

Exam item: Next record, please: CCC(C)SSc1nnc(C)s1 (centres unmarked)
Marked response: 68.1

Exam item: Try CCC(C)SSc1nnc(S)s1 (centres unmarked) next.
Marked response: 117

----------
Tested on: MCF-7 human breast cancer cells
experiment-notes: Thioredoxin and serum dependent growth of MCF-7 cells
Type: cell-based
condition: MCF7, in the presence of 1 μM thioredoxin, 48 hr, read-out: IC50 thioredoxin dependent proliferation
property-label: pIC50
Notebook: values listed as pIC50 are -log10 of the concentration (mol/L).

INSERT INTO measurements (compound, property_label, value_observed) VALUES
  ('CCC(C)SSc1ncc[nH]1 (centres unmarked) [IV-2, 1-methylpropyl 2-imidazolyl disulfide]', 'pIC50', 5.92);

Let's switch to this compound now.
Exam item: For CCCCSSc1ncc[nH]1 [III-2, n-butyl 2-imidazolyl disulfide] , what is its reported pIC50?
Marked response: 6.70

----------
measurement-target: TR/Trx (Homo sapiens)
experiment-notes: Thioredoxin dependent reduction of insulin by human thioredoxin reductase and NADPH (IC50 TR/Trx, 96 well)
Format: biochemical
condition: Table 4
Excerpt: When referring to the particular system being analyzed IC50 is typically followed by an abbreviation referring to that system (i.e., IC50 TR/Trx for the above described thioredoxin redox system which is comprised of thioredoxin reductase and thioredoxin). A second plate was used for the assessment of biological activity or as a biological screen. Aliquots of disulfides dissolved in DMSO, were be transferred into 96 well plates. […]
// Disulfide inhibition of TR/Trx (IC50 TR/Trx) lookup, one value per entry

Worked set:
INSERT INTO measurements (molecule, value_observed) VALUES
  ('CCC(C)SSc1nc2ccccc2[nH]1 (stereo not shown) [Compound F-8]', '7 µg/mL'),
  ('CCCCSSC1CCCC1 [Compound C-27]', '51 µg/mL'),
  ('CCCCSSc1nc(N)nc2[nH]cnc12 [Compound C-6]', '33 µg/mL'),
  ('CC(SSc1nc2cc([N+](=O)[O-])ccc2[nH]1)c1ccccc1 (stereo not shown) [Compound J-10]', '43 µg/mL');

Exam item: Hi! What's the reported Disulfide inhibition of TR/Trx (IC50 TR/Trx) for CC(SSc1nccn1C)c1ccccc1 (stereo not shown) [Compound J-2] on TR/Trx (Homo sapiens)?
Marked response: 12 µg/mL

Exam item: Another molecule to check: O=C(O)c1cccnc1SSCc1ccccc1 [Compound I-23]
Marked response: 35 µg/mL

Exam item: Continue with CC(SSc1nc2ccccc2o1)c1ccccc1 (stereo not shown) [Compound J-12]
Marked response: 16 µg/mL

Exam item: Also Cc1ccnc(SSCc2ccccc2)n1 [Compound I-24] , if possible.
Marked response: 35 µg/mL

Exam item: And then CC(C)SSc1nccn1C [Compound E-2] , what is it?
Marked response: 100 µg/mL

Exam item: Query CCSSc1nccn1C [Compound A-2] next
Marked response: 80 µg/mL

Exam item: What do you have for CCSSc1ncccc1C(=O)O [Compound A-23] ?
Marked response: 35 µg/mL

Exam item: Would you kindly repeat that for CCC(C)SSC(C)c1ccccc1 (stereo not shown) [Compound F-22] ?
Marked response: 201 µg/mL

Exam item: Moving on to the next molecule: CC(C)SSc1ncccc1C(=O)O [Compound E-23]
Marked response: 40 µg/mL

Exam item: // query: Cn1ccnc1SSCc1ccccc1 [Compound I-2]
Marked response: 100 µg/mL

Exam item: Repeat for the following molecule: CCCCSSc1ncnc2[nH]cnc12 [Compound C-7]
Marked response: 33 µg/mL

Exam item: Note, next up: CCCCSSc1nnc(S)s1 [Compound C-4]
Marked response: 56 µg/mL

Exam item: How about this molecule: CC(SSc1nc2ccccc2[nH]1)c1ccccc1 (stereo not shown) [Compound J-8]
Marked response: 8 µg/mL

Exam item: Same lookup for CCCSSc1ncc[nH]1 [Compound B-1] , please.
Marked response: 7 µg/mL

Exam item: Now try CCC(C)SSc1nccc(C)n1 (stereo not shown) [Compound F-24] .
Marked response: 83 µg/mL

Exam item: Thanks! And CC(C)SSc1ncc[nH]1 [Compound E-1] ?
Marked response: 7 µg/mL

Exam item: Next molecule up: CC(C)CSSc1nccn1C [Compound G-2]
Marked response: 125 µg/mL

----------
# pIC50 values compiled below
Tested on: EMT6 mouse mammary tumor cells
experiment-notes: Cytotoxicity against EMT6 cells in culture (MTT)
condition: read-out: Disulfide Cytotoxicity (IC50), Table 5, 48 h exposure
The meaning of pIC50 here: minus log10 of the concentration in molar units.

Use the examples below as a reference point.
INSERT INTO assay_data (compound, measurement_target, property_label, value_observed) VALUES
  ('CC(C)SSc1nc2ccccc2[nH]1 [Compound E-8]', 'EMT6 mouse mammary tumor cells', 'pIC50', 4.18),
  ('CC(O)C(C)SSc1ncccc1C(=O)O (stereo not drawn) [Compound M-23]', 'EMT6 mouse mammary tumor cells', 'pIC50', 4.02),
  ('Cc1ccc2[nH]c(SSC(C)C(C)O)nc2c1 (stereo not drawn) [Compound M-9]', 'EMT6 mouse mammary tumor cells', 'pIC50', 4.12),
  ('O=C(O)CCSSc1ncccc1C(=O)O [Compound N-23]', 'EMT6 mouse mammary tumor cells', 'pIC50', 4.04),
  ('ClCCCSSc1ncnc2[nH]cnc12 [Compound H-7]', 'EMT6 mouse mammary tumor cells', 'pIC50', 4.44);

Exam item: Any idea what pIC50 came out for ClCCCSSCc1ccccc1 [Compound H-19] on EMT6 mouse mammary tumor cells?
Marked response: 3.97

Exam item: Also need CC(O)C(C)SSc1ncc[nH]1 (stereo not drawn) [Compound M-1] , thanks.
Marked response: 4.47

----------
Tested on: MCF-7 human breast cancer cells
experiment-notes: Thioredoxin and serum dependent growth of MCF-7 cells
Type: cell-based
condition: MCF7, with 10% fetal bovine serum, 48 hr, read-out: IC50 serum dependent growth
Listed next: entries and their corresponding pIC50.
# pIC50: negative log10 of molar concentration; output just the value

INSERT INTO assay_data (molecule, measurement_target, value_observed) VALUES
  ('CCC(C)SSc1ncc[nH]1 (centres unmarked) [IV-2, 1-methylpropyl 2-imidazolyl disulfide]', 'MCF-7 human breast cancer cells', 5.49);

Consider now this further molecule.
Exam item: Which value of pIC50 has been reported for CCCCSSc1ncc[nH]1 [III-2, n-butyl 2-imidazolyl disulfide] in the records?
Marked response: 4.46
